# credit: PubChem BioAssay AID248

Tested on: L1210 leukemia ip in BDF1 mice, survival T/C
Assay: NCI In Vivo Anticancer Drug Screen. Data for tumor model L1210 Leukemia (intraperitoneal) in B6D2F1 (BDF1) mice
Details: endpoint: mean survival time; dose: 100.0 mg/kg/injection; schedule: Q04DX003 (ip); vehicle: saline with Tween-80; higher = longer survival
Description: The antitumor activity of compounds was measured in mice bearing transplantable tumors. Survival or tumor size were measured and the results are expressed as the measurement made in the treated group (T) divided by the measurement made in the vehicle treated control group (C). The tumor model used in this assay is L1210 Leukemia (intraperitoneal) in B6D2F1 (BDF1) mice
Toxic doses and inconclusive results are not listed.
quantity: T/C

Worked cases, answers included:
{"molecule": "CC(O)(c1ccccc1)c1ccccc1", "T/C": "100 % of control"}
{"molecule": "CC(C)(C)NC(=O)Cc1ccccc1", "T/C": "98 % of control"}
{"molecule": "CC(=O)OCc1ccc(Cl)cc1Cl", "T/C": "97 % of control"}
{"molecule": "OCC(O)COCc1ccccc1 (configuration not stated)", "T/C": "109 % of control"}
{"molecule": "C=C(C)c1c2c(Sc3ccc(C(C)(C)C)cc3)cccc2cc2cccc(Sc3ccc(C(C)(C)C)cc3)c12", "T/C": "98 % of control"}

Answer for every listed entry: what is its T/C? The entries follow.
1. COc1cccc(OC)c1C1(O)c2ccccc2-c2ccccc21
2. CCCC(=O)Nc1ccc(O)cc1

98 % of control
96 % of control
